The measured values listed here are drawn from patent EP1147080B1.

- systemUnderTest: MMP-13 (Homo sapiens, UniProt P45452)
- assayOverview: MMP-13 inhibition (thiopeptide or fluorescent peptide substrate)
- Type: biochemical
- conditionParameters: % @ 10µM per footnote a; read-out: MMP13
assayEndpoint: inhibition at 10 µM (%)

molecule	units	val
CC#CCOc1ccc(S(=O)(=O)C(C(=O)NO)C2CCOCC2)cc1 (stereo not shown)	%	57
CC#CCOc1ccc([S+]([O-])[C@H](C(=O)NO)c2cccc(Br)c2)cc1 (single isomer, unassigned)	%	32
CC#CCOc1ccc(SC(C(=O)NO)c2ccccc2OC)cc1 (stereo not shown)	%	59
CC#CCOc1ccc(S(=O)(=O)C(C(=O)NO)c2cccc3ccccc23)cc1 (stereo not shown)	%	34
CC#CCOc1ccc(S(=O)(=O)C(C(=O)NO)C2CCN(Cc3ccc(OC)cc3)CC2)cc1 (stereo not shown)	%	50

a. CC#CCOc1ccc(SC(C(=O)NO)c2cccc(Cl)c2)cc1 (stereo not shown)
b. CC#CCOc1ccc(SC(C(=O)NO)c2ccccc2)cc1 (stereo not shown)
Among a and b , which shows a numerically higher inhibition at 10 µM result? Return value: the label identifying the chosen record. a
